- assay-method-text: gradient 5% acetonitrile 3 min, to 50% in 2 min, to 85% in 15 min, held 3 min, 100 µL/min
- applied-conditions: column: Zorbax Extend-C18 2.1 x 50 mm; eluents: water / acetonitrile, 0.1% formic acid
metric: RP-LC retention time (s)

- compound: "CCC(C)NC(=O)c1cn(-c2cc(-c3nc(C4CC4)no3)ccn2)cn1 (configuration not stated)"
  metric: "RP-LC retention time"
  unit-text: "s"
  recorded-result: 840
- compound: "CCCCN1CCC(N(C(=O)NCCc2ccccc2)C2CCOCC2)CC1"
  metric: "RP-LC retention time"
  unit-text: "s"
  recorded-result: 671
- compound: "COc1ccc(-c2nnc3n2CCN(Cc2cnn(C)c2C)C3)cc1"
  metric: "RP-LC retention time"
  unit-text: "s"
  recorded-result: 583
- compound: "CCOC(=O)c1nc(NCCc2ccccc2)c2ccccc2n1"
  metric: "RP-LC retention time"
  unit-text: "s"
  recorded-result: 769
- compound: "Cc1cc(=O)n(CC(=O)Nc2cc(Cl)ccc2C)c(N2CCOCC2)n1"
  metric: "RP-LC retention time"
  unit-text: "s"
  recorded-result: 736
- compound: "CC(=O)Nc1ccc2c(c1)CN(C(=O)c1ccc(C)cc1C)C(C(=O)N(C)C)C2 (configuration not stated)"
  metric: "RP-LC retention time"
  unit-text: "s"
  recorded-result: 778
- compound: "CSc1ncccc1C(=O)Nc1ccc(CC(=O)NC(C)(C)CO)cc1"
  metric: "RP-LC retention time"
  unit-text: "s"
  recorded-result: 633
- compound: "Fc1ccc(Cn2cc(-c3noc(-c4ccccc4)n3)nn2)cc1"
  metric: "RP-LC retention time"
  unit-text: "s"
  recorded-result: 994
- compound: "Cc1ccc(S(=O)(=O)c2cnc(N3CCC(C(N)=O)(N4CCCCC4)CC3)nc2N)cc1"
  metric: "RP-LC retention time"
  unit-text: "s"
  recorded-result: 613
- compound: "CCN1C(=O)COc2ccc(-c3csc(NC(=O)c4cccc(OC)c4)n3)cc21"
  metric: "RP-LC retention time"
  unit-text: "s"
  recorded-result: 967
- compound: "CC(NC(=O)c1ccc2c(c1)nc1n2CCN(Cc2ccccc2)C1=O)c1cccnc1 (configuration not stated)"
  metric: "RP-LC retention time"
  unit-text: "s"
  recorded-result: 616
- compound: "COc1ccc(NC(=O)CN2CCC(c3nc(-c4cccs4)no3)CC2)cc1"
  metric: "RP-LC retention time"
  unit-text: "s"
  recorded-result: 670
- compound: "Cn1c(=O)c(N2CCC(C(=O)NCCc3c[nH]c4ccc(Cl)cc34)CC2)nc2ccccc21"
  metric: "RP-LC retention time"
  unit-text: "s"
  recorded-result: 892
- compound: "Cc1ccc(CNC(=O)Cn2cccc2-c2nnc(-c3ccccc3)o2)o1"
  metric: "RP-LC retention time"
  unit-text: "s"
  recorded-result: 882
- compound: "O=[N+]([O-])c1ccc(NN=C(c2ccccc2)c2ccccc2)nc1"
  metric: "RP-LC retention time"
  unit-text: "s"
  recorded-result: 1300
- compound: "N#Cc1cccc(NC(=O)Cn2c(=O)cc(C(=O)N3CCCC3)c3ccccc32)c1"
  metric: "RP-LC retention time"
  unit-text: "s"
  recorded-result: 690
- compound: "CCc1ccc2c(c1)cc(S(=O)(=O)c1ccccc1)c(=O)n2CC(=O)NC(C)CC (configuration not stated)"
  metric: "RP-LC retention time"
  unit-text: "s"
  recorded-result: 945
- compound: "CCN1CCN(CCCNC(=O)C2CCCN(c3nnc(-n4c(C)ccc4C)s3)C2)CC1 (configuration not stated)"
  metric: "RP-LC retention time"
  unit-text: "s"
  recorded-result: 592
- compound: "CC1(C(=O)NCc2ccccc2)CN(S(=O)(=O)c2ccccc2)CC(=O)N1c1ccc(Cl)cc1 (configuration not stated)"
  metric: "RP-LC retention time"
  unit-text: "s"
  recorded-result: 956
- compound: "CC(CCc1ccco1)NC(=O)c1nnn(-c2ccccc2)c1-c1ccccn1 (configuration not stated)"
  metric: "RP-LC retention time"
  unit-text: "s"
  recorded-result: 862
- compound: "CCc1cc(N2CCN(C(=O)c3ccc4c(c3)OCO4)CC2)nc2nncn12"
  metric: "RP-LC retention time"
  unit-text: "s"
  recorded-result: 575
- compound: "CC(=O)N1CCc2cc(N3CC(C(=O)NC(C)c4ccccn4)CC3=O)ccc21 (configuration not stated)"
  metric: "RP-LC retention time"
  unit-text: "s"
  recorded-result: 904
